# assay_overview: Toxicity on macrophages (MTT, CC50)
# Format: cell-based
# test_parameters: human, THP-1 macrophage cell line; 72 h
# Procedure: The promastigote form of L. major (MRHO/IR/75/ER), the national standard isolate, was obtained from the Pasteur Institute of Iran and cultured at 25 °C in RPMI-1640 medium containing 10 % heat-inactivated FBS and 1 % penicillin/streptomycin. […] To assess the impact of the D. lindbergii fraction on L. major promastigotes, amastigotes, and macrophages, cell viability was determined using the 3-(4,5-dimethylthiazol-2-yl)-2,5-diphenyl tetrazolium bromide (MTT). […]

structure: C[C@@H]1[C@H](O)[C@@H](C)/C=C/C=C/C=C/C=C/C=C/C=C/C=C/[C@H](O[C@@H]2O[C@H](C)[C@@H](O)[C@H](N)[C@@H]2O)C[C@@H]2O[C@](O)(C[C@@H](O)C[C@@H](O)[C@H](O)CC[C@@H](O)C[C@@H](O)CC(=O)O[C@H]1C)C[C@H](O)[C@H]2C(=O)O
CC50 at 72 h / µg/mL: 749
